- SYSTEM_UNDER_TEST: Inadl_5, Q8NI35
- Sequence (Q8NI35 673-780): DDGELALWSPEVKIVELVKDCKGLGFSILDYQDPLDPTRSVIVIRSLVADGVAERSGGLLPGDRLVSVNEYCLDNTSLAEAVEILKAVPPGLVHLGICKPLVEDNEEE
- PROCEDURE_DETAILS: holdup assay
- Design: key: below the threshold = too weak to quantify, mostly under pKd 3.1 to 4
- CONDITION_LABEL: plain residues with an end cap or a label only (N-terminal biotin on a linker: ado-ado)
QUANTITY_MEASURED: pKd

Consider the reported pKd for these binders:
BINDER | RESULT
QSARLWETSI [ADAM22, Q9P0K1] | below the threshold
EKKTLIGIKL [GOT1L1, Q8NHS2] | below the threshold
VNKSKLLTDV [KCNA1, Q09470] | below the threshold
VRNLPESEEL [MYOZ3, Q8TDC0] | below the threshold
VKPQVSESKL [ACOT8, O14734] | below the threshold
GQEEQVTTRL [TRPC5, Q9UL62] | below the threshold

State the recorded pKd for every item in the following list.
1. SSALYGESDL [ACTN2, P35609]
2. PAPSSGKDYV [CLDN1, O95832]

## Output
1. below the threshold
2. below the threshold
